Sourced from ChEMBL document CHEMBL3784919

# System: HeLa
# protocol.summary: Antiproliferative activity against human HeLa cells assessed as cell viability after 48 hrs by SRB assay
# Type: functional, cell-based
parameter.measured: IC50 (nM)
Entry rule: numbers only, all in nM.

Take a look at these entries with their results.
{"columns": ["chemical.smiles", "test.target", "units.of.measure", "measured.number"],
 "data": [
  ["COC(=O)c1cc(NC2=NC(=O)/C(=C/c3ccc(Br)cc3)S2)ccc1O", "HeLa", "nM", 3480],
  ["COC(=O)c1cc(NC2=NC(=O)/C(=C/c3ccccc3O)S2)ccc1O", "HeLa", "nM", 1390],
  ["COC(=O)c1cc(NC2=NC(=O)/C(=C/c3ccc(C)cc3)S2)ccc1O", "HeLa", "nM", 85]
]}

Param item = `COC(=O)c1cc(NC2=NC(=O)/C(=C/c3ccc(N(C)C)cc3)S2)ccc1O` ; retrieve measured IC50. 180
